molecular target: Tyrosine-protein phosphatase non-receptor type 1 (Homo sapiens); experiment: Inhibition of human recombinant GST-tagged PTP1B expressed in Escherichia coli BL21 (DE3) using pNPP as substrate measured for 2 mins by colorimetric analysis
pIC50: −log10 of the molar value.
Given measured pIC50, output fulfilled if it is greater than or equal to 6 and not fulfilled if not.

These recorded examples may help you get a feel for the data.
- Compound: "COc1cc(/C=C2\\SC(=S)N(C(Cc3c[nH]c4ccccc34)C(=O)O)C2=O)ccc1OCc1ccc(C)cc1 (centres undefined)"
  System Tested: "Tyrosine-protein phosphatase non-receptor type 1 (Homo sapiens)"
  Label Class: "not fulfilled"
- Compound: "O=C(O)C(Cc1c[nH]c2ccccc12)N1C(=O)/C(=C/c2ccc3cc(OCc4ccc(Cl)cc4Cl)ccc3c2)SC1=S (centres undefined)"
  System Tested: "Tyrosine-protein phosphatase non-receptor type 1 (Homo sapiens)"
  Label Class: "fulfilled"
- Compound: "O=C(O)C(Cc1c[nH]c2ccccc12)N1C(=O)/C(=C/c2ccc(OCc3ccc(Br)cc3)cc2)SC1=S (centres undefined)"
  System Tested: "Tyrosine-protein phosphatase non-receptor type 1 (Homo sapiens)"
  Label Class: "not fulfilled"
- Compound: "COc1cccc(COc2ccc3cc(/C=C4\\SC(=S)N(C(Cc5c[nH]c6ccccc56)C(=O)O)C4=O)ccc3c2)c1 (centres undefined)"
  System Tested: "Tyrosine-protein phosphatase non-receptor type 1 (Homo sapiens)"
  Label Class: "not fulfilled"
- Compound: "O=C(O)C(Cc1c[nH]c2ccccc12)N1C(=O)/C(=C/c2ccc(OCc3ccc(Cl)cc3Cl)cc2)SC1=S (centres undefined)"
  System Tested: "Tyrosine-protein phosphatase non-receptor type 1 (Homo sapiens)"
  Label Class: "not fulfilled"
- Compound: "Cc1ccc(COc2ccc3cc(/C=C4\\SC(=S)N(C(Cc5c[nH]c6ccccc56)C(=O)O)C4=O)ccc3c2)cc1 (centres undefined)"
  System Tested: "Tyrosine-protein phosphatase non-receptor type 1 (Homo sapiens)"
  Label Class: "fulfilled"

Kindly review the next compound as well.
Is pIC50 at least 6? Consider O=C(O)C(Cc1c[nH]c2ccccc12)N1C(=O)/C(=C/c2cccc(OCc3ccc(Cl)cc3)c2)SC1=S (centres undefined)
not fulfilled

====

molecular target: Tyrosine-protein phosphatase non-receptor type 1 (Homo sapiens, UniProt P18031); assay: Inhibition of human recombinant GST-tagged PTP1B expressed in Escherichia coli BL21 (DE3) using pNPP as substrate measured for 2 mins by colorimetric analysis
Sequence (P18031 whole entry): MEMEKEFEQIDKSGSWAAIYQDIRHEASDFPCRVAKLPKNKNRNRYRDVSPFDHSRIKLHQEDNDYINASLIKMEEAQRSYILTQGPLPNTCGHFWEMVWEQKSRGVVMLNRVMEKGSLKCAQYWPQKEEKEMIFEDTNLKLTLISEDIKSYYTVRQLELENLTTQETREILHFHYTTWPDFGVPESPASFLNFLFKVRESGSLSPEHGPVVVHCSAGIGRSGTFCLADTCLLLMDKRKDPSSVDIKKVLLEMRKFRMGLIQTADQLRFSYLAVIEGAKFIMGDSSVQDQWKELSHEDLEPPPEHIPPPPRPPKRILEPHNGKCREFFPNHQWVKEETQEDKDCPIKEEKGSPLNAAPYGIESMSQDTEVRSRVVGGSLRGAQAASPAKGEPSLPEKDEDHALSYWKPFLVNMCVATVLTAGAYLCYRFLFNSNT
Assign pIC50 to each entry below.
One number for each entry, as −log10 of the molar value.

- Molecule: "O=C(O)C(Cc1c[nH]c2ccccc12)N1C(=O)/C(=C/c2ccc3cc(OCc4ccccc4)ccc3c2)SC1=S (stereo not drawn)"
  Measured Number: 6.09
- Molecule: "COc1ccccc1COc1ccc2cc(/C=C3\\SC(=S)N(C(Cc4c[nH]c5ccccc45)C(=O)O)C3=O)ccc2c1 (stereo not drawn)"
  Measured Number: 5.82
- Molecule: "O=C(O)C(Cc1c[nH]c2ccccc12)N1C(=O)/C(=C/c2ccc3cc(OCc4ccccc4Cl)ccc3c2)SC1=S (stereo not drawn)"
  Measured Number: 6.10
- Molecule: "COc1cc(/C=C2\\SC(=S)N(C(Cc3c[nH]c4ccccc34)C(=O)O)C2=O)ccc1OCc1ccc(Cl)cc1 (stereo not drawn)"
  Measured Number: 5.36
- Molecule: "O=C(O)C(Cc1c[nH]c2ccccc12)N1C(=O)/C(=C/c2ccc3cc(OCc4ccc(Cl)cc4)ccc3c2)SC1=S (stereo not drawn)"
  Measured Number: 6.14
- Molecule: "COc1ccc(COc2ccc3cc(/C=C4\\SC(=S)N(C(Cc5c[nH]c6ccccc56)C(=O)O)C4=O)ccc3c2)cc1 (stereo not drawn)"
  Measured Number: 5.84

Dear reader, for each entry below, please note its pIC50.
1. O=C(O)C(Cc1c[nH]c2ccccc12)N1C(=O)/C(=C/c2ccc(OCc3ccccc3)cc2)SC1=S (stereo not drawn)
2. O=C(O)C(Cc1c[nH]c2ccccc12)N1C(=O)/C(=C/c2ccc3cc(OCc4ccc(Br)cc4)ccc3c2)SC1=S (stereo not drawn)

[5.26, 6.44]

====

Biological target: M-phase inducer phosphatase 2 (Homo sapiens, UniProt P30305)
Sequence (P30305 whole entry): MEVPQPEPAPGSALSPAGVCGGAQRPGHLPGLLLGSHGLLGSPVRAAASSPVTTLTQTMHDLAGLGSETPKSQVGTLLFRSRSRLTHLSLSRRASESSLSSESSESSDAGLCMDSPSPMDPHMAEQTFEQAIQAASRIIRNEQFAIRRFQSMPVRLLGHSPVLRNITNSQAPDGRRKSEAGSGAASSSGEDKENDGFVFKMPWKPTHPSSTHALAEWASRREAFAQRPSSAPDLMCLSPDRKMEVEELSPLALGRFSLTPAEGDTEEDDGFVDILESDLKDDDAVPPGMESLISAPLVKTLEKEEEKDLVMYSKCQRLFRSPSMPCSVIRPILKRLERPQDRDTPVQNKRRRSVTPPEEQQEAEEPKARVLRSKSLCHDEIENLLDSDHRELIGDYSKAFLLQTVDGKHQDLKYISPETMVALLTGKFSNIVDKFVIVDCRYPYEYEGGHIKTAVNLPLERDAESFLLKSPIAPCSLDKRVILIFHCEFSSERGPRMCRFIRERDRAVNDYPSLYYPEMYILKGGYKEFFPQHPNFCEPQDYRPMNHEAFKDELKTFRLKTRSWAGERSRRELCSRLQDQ
Test: Inhibition of human recombinant GST-tagged CDC25B expressed in Escherichia coli BL21 (DE3) using pNPP as substrate measured for 2 mins by colorimetric analysis
Exercise: for every item that follows, state its recorded IC50.
Give bare numbers, in nM.

Completed entries (count: 2):
- Compound: "O=C(O)C(Cc1c[nH]c2ccccc12)N1C(=O)/C(=C/c2ccc3cc(OCc4ccc(F)cc4)ccc3c2)SC1=S (centres undefined)"
  IC50 (nM): 380
- Compound: "O=C(O)C(Cc1c[nH]c2ccccc12)N1C(=O)/C(=C/c2ccc3cc(OCc4ccc(Cl)cc4Cl)ccc3c2)SC1=S (centres undefined)"
  IC50 (nM): 490

Could you report IC50 for every entry in the following list?
1. Cc1ccc(COc2ccc3cc(/C=C4\SC(=S)N(C(Cc5c[nH]c6ccccc56)C(=O)O)C4=O)ccc3c2)cc1 (centres undefined)
2. O=C(O)C(Cc1c[nH]c2ccccc12)N1C(=O)/C(=C/c2ccc3cc(OCc4ccc(Br)cc4)ccc3c2)SC1=S (centres undefined)

830
320

====

Kindly state pIC50 for each of the entries shown.
Target: Tyrosine-protein phosphatase non-receptor type 11 (Homo sapiens, UniProt Q06124)
Sequence (Q06124 whole entry): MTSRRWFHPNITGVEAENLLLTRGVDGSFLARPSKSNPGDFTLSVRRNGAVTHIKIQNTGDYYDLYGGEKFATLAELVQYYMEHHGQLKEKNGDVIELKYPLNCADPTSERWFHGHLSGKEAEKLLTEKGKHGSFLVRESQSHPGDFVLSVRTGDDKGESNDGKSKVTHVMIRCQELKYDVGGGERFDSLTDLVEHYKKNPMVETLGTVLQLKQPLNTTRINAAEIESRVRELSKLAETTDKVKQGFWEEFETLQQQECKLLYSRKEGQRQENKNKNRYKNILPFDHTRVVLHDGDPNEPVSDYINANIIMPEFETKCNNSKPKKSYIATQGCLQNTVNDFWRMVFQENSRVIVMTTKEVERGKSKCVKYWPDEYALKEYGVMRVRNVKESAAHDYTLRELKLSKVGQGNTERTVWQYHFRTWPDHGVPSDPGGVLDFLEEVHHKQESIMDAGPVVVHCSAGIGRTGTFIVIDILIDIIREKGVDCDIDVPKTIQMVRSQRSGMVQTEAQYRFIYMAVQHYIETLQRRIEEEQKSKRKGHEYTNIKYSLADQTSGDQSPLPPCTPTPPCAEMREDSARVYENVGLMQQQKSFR
Experiment: Inhibition of human recombinant GST-tagged SHP2 (catalytic domain […] residues) expressed in Escherichia coli BL21 (DE3) using pNPP as substrate measured for 2 mins by colorimetric analysis
One number for each entry, as −log10 of the molar value.

- Compound: "O=C(O)C(Cc1c[nH]c2ccccc12)N1C(=O)/C(=C/c2ccc3cc(OCc4ccc(Cl)cc4Cl)ccc3c2)SC1=S (centres undefined)"
  pIC50: 5.16
- Compound: "Cc1ccc(COc2ccc3cc(/C=C4\\SC(=S)N(C(Cc5c[nH]c6ccccc56)C(=O)O)C4=O)ccc3c2)cc1 (centres undefined)"
  pIC50: 5.24

Below is a list of compounds. For each, state its recorded pIC50.
1. O=C(O)C(Cc1c[nH]c2ccccc12)N1C(=O)/C(=C/c2ccc3cc(OCc4ccc(F)cc4)ccc3c2)SC1=S (centres undefined)
2. O=C(O)C(Cc1c[nH]c2ccccc12)N1C(=O)/C(=C/c2ccc3cc(OCc4ccc(Br)cc4)ccc3c2)SC1=S (centres undefined)

[5.37, 5.42]

====

tested on: Staphylococcus aureus; test: Antibacterial activity against Quinolone-resistant Staphylococcus aureus CCARM 3519 assessed as reduction in bacterial cell growth incubated for 24 hrs by ELISA; format: functional; settings: CCARM 3519, 24 h
Measure Name: MIC (µg/mL)
Answers are plain numbers, in µg/mL.

- Molecule: "COc1cc(/C=C2\\SC(=S)N(C(Cc3c[nH]c4ccccc34)C(=O)O)C2=O)ccc1OCc1ccccc1 (centres undefined)"
  System Tested: "Staphylococcus aureus"
  Measured Number: 16

Hi there! I need MIC for each item below, if you can.
1. O=C(O)CN1C(=O)/C(=C/c2ccc3cc(OCc4ccc(F)cc4)ccc3c2)SC1=S
2. O=C(O)C(Cc1c[nH]c2ccccc12)N1C(=O)/C(=C/c2ccc(OCc3ccc(Cl)cc3)cc2)SC1=S (centres undefined)

1: 4; 2: 4
